# METHOD_SUMMARY: Human HepG2 cell viability assay in 384 well format
# Type: toxicity, cell-based
# Design: dose 125 nL, time 70.5 hour; concentration not given beside the values
# CONDITION_DESCRIPTION: HepG2 cells, read-out: Inhibition
// reported cytotoxicity at 70.5 h for each item listed
Entry rule: numbers only, all in %.

These recorded examples may help you get a feel for the data.
> print(dat)
                                   compound           quantity.kind  reported.value
1  O=C(NC1CCc2nccn2C1)c1ccc(NC2CC2)nc1 (stereo unspecified)  cytotoxicity at 70.5 h             -12
2  Cc1cnc(N2CCC3(CCCN(c4ccc(C)nn4)C3)C2)nc1 (stereo unspecified)  cytotoxicity at 70.5 h            14.4
3  Cc1nccn1-c1ccc(=O)n(CCNC(=O)c2c(F)cccc2Cl)n1  cytotoxicity at 70.5 h           -6.16
4  CN1CC=C(c2noc(CCC(=O)N3CCc4ccccc43)n2)CC1  cytotoxicity at 70.5 h           -26.2
5  Cn1cc(S(=O)(=O)N(Cc2ccc(F)cc2F)C2CC2)cc1C(N)=O  cytotoxicity at 70.5 h           -7.08
6  CS(=O)(=O)CCN(CC1CCCO1)C1CCCC1 (stereo unspecified)  cytotoxicity at 70.5 h            19.5
7  COc1ccc(OCc2sc(C3(O)CCCNCC3)nc2C)cc1 (stereo unspecified)  cytotoxicity at 70.5 h           -10.3
8  CCS(=O)(=O)N1C[C@H]2CN(Cc3cccc(F)c3)C(=O)[C@H]2C1  cytotoxicity at 70.5 h           -3.13

Give reported cytotoxicity at 70.5 h value for CN1CC2(CCCN(Cc3nnc(-c4ccco4)o3)CC2)OC1=O (stereo unspecified)
-0.887

Give reported cytotoxicity at 70.5 h value for Cn1cc(CN2C[C@@H]3COC[C@]3(C(=O)NCc3ccccn3)C2)cn1
-17.5

Give reported cytotoxicity at 70.5 h value for CC(NC(=O)Nc1cccnc1N1CCCC1)c1ccccn1 (stereo unspecified)
-17.8

* * *

# METHOD_SUMMARY: Human HepG2 cell viability assay in 384 well format
# Format: toxicity, cell-based
# Set-up: dose 125 nL, time 70.5 hour; concentration not given beside the values
# CONDITION_DESCRIPTION: HepG2 cells, read-out: Inhibition
QUANTITY_KIND: cytotoxicity at 70.5 h (%)
Entry rule: numbers only, all in %.

> print(dat)
                                   compound           quantity.kind  reported.value
1  CCN1c2ccc(-c3cncn3CCCn3ccnc3C)cc2CC1C (centres undefined)  cytotoxicity at 70.5 h          -0.494
2  Cc1cccc(NC(=O)C2CSCN2C(=O)c2cnccn2)c1C (centres undefined)  cytotoxicity at 70.5 h           -7.92
3  Cn1cnc2c1C(COCC1CC1)CN(Cc1ccc3c(c1)OCO3)C2 (centres undefined)  cytotoxicity at 70.5 h            36.5

Give reported cytotoxicity at 70.5 h value for O=C1CC(c2ncc(-c3ccc4c(c3)OCCO4)[nH]2)CN1C1CCCC1 (centres undefined)
-4.48

Give reported cytotoxicity at 70.5 h value for CC(C(=O)N1CCn2cncc2C1)N1C[C@@H](C)O[C@@H](C)C1 (some centres undefined)
0.983

Give reported cytotoxicity at 70.5 h value for CN(C)C[C@@H]1CN(C(=O)Cc2cccc(O)c2)C[C@@H]1CO
-7.03

Give reported cytotoxicity at 70.5 h value for Cc1ccc2c(c1)CCC21CCN(C(=O)CN(C)C)CC1
-1.12

Give reported cytotoxicity at 70.5 h value for COCCC1(C(=O)O)CCCN(CCc2ccccc2)C1 (centres undefined)
-7.32

Give reported cytotoxicity at 70.5 h value for NC(=O)N1CCc2cc(C(=O)O)c(-c3ccsc3)nc2CC1
-6.4

Give reported cytotoxicity at 70.5 h value for O=C(c1cc(C2CC2)[nH]n1)N1CCN(Cc2ccccc2)CC1
-4.29

Give reported cytotoxicity at 70.5 h value for CN1CCCN(C(=O)c2ccnn2-c2ccc3ccccn23)CC1
12.9

* * *

# METHOD_SUMMARY: Human HepG2 cell viability assay in 384 well format
# Assay type: toxicity, cell-based
# Set-up: dose 125 nL, time 70.5 hour; concentration not given beside the values
# CONDITION_DESCRIPTION: HepG2 cells, read-out: Inhibition
// reported cytotoxicity at 70.5 h for each item listed
Entry rule: numbers only, all in %.

> print(dat)
                                   compound  reported.value
1               CSCc1cccc(S(=O)(=O)NCCCO)c1            -6.9
2  O=C(N1CCOCC1)[C@@]12CCO[C@@H]1CCN(C1CCCCC1)C2            47.3
3  CC(C)c1cccc(NC(=O)Cn2c(=O)n(C)c(=O)c3sccc32)c1            5.39
4       COc1ccnc(N2Cc3cnc(C(C)(C)C)nc3C2)n1           0.551
5  CCc1ncc(CN(C)C2CCN(c3sccc3C#N)C2=O)s1 (stereo not drawn)           -2.11
6  c1ccc(CCCN2CC[C@H](c3nnc(-c4ccccc4)o3)C2)cc1           -2.93

Give reported cytotoxicity at 70.5 h value for Cc1nc(-c2cccc(C(=O)O)c2)cc(C2CCN(C(C)C)C2)n1 (stereo not drawn)
-2.07

Give reported cytotoxicity at 70.5 h value for CCc1nc(Nc2ccc(C(=O)NC)cc2)c2c(n1)c(C)nn2CC
-16.9

Give reported cytotoxicity at 70.5 h value for Cn1cc(N2CC3(CCN(CC4CCC4)CC3)OCC2=O)cn1
-7.64

* * *

// reported cytotoxicity at 70.5 h for each item listed
# METHOD_SUMMARY: Human HepG2 cell viability assay in 384 well format
# Assay type: toxicity, cell-based
# Parameters: dose 125 nL, time 70.5 hour; concentration not given beside the values
# CONDITION_DESCRIPTION: HepG2 cells, read-out: Inhibition
Entry rule: numbers only, all in %.

These recorded examples may help you get a feel for the data.
> print(dat)
                                   molecule  reported.value
1  COC(=O)C1CCN(C(=O)c2cccc(NS(C)(=O)=O)c2C)CC1           -7.56
2  Cc1ccc(CN2C[C@H]3CN(CC4CCN(C)CC4)C(=O)[C@H]3C2)s1           -12.7
3              Cc1ccnc(NCc2cn3c(C)csc3n2)n1           -11.5

Now consider the entry below.
Give reported cytotoxicity at 70.5 h value for CC(=O)c1cccc(NC(=O)CN2CCCC(C3OCCO3)C2)c1 (stereo not drawn)
-7.07

* * *

// reported cytotoxicity at 70.5 h for each item listed
# METHOD_SUMMARY: Human HepG2 cell viability assay in 384 well format
# Assay type: toxicity, cell-based
# Design: dose 125 nL, time 70.5 hour; concentration not given beside the values
# CONDITION_DESCRIPTION: HepG2 cells, read-out: Inhibition
Entry rule: numbers only, all in %.

Give reported cytotoxicity at 70.5 h value for Cc1cccc(CN2C(=O)C[C@H]3[C@@H]2CCN3Cc2cccs2)n1
0.507

Give reported cytotoxicity at 70.5 h value for Cc1ccc2cccc(S(=O)(=O)N(C)CC3CCN(C)CC3)c2n1
-7.7

Give reported cytotoxicity at 70.5 h value for COC[C@@]12CCO[C@@H]1CCN(C(=O)C1CCSCC1)C2
-5.18

Give reported cytotoxicity at 70.5 h value for Cc1ccc(CNC(=O)Cc2c(C)nc3c(c2C)c(=O)[nH]n3C)cc1
4.93

Give reported cytotoxicity at 70.5 h value for O=S(=O)(Cc1ccccc1)NCc1nnc2n1CCC2
-22.1

Give reported cytotoxicity at 70.5 h value for O=C(Nc1cnccn1)[C@H]1CC[C@@H]2[C@@H](CCN2Cc2ccoc2)O1
25.7

Give reported cytotoxicity at 70.5 h value for Cc1ncc2c(n1)CN(Cc1nc(Cc3ccccc3)no1)CC2
-8.87

Give reported cytotoxicity at 70.5 h value for Cc1ccccc1N1CCN(C(=O)Cc2ccc3c(c2)OCO3)CC1=O
-2.79

* * *

// reported cytotoxicity at 70.5 h for each item listed
# METHOD_SUMMARY: Human HepG2 cell viability assay in 384 well format
# Type: toxicity, cell-based
# Design: dose 125 nL, time 70.5 hour; concentration not given beside the values
# CONDITION_DESCRIPTION: HepG2 cells, read-out: Inhibition
Entry rule: numbers only, all in %.

> print(dat)
                                  molecule           quantity.kind  reported.value
1  O=C(NC[C@@H]1CCCO1)c1cc(Br)cnc1N1CCCCC1  cytotoxicity at 70.5 h           -1.68

Give reported cytotoxicity at 70.5 h value for COC(=O)N1CCc2ccccc2C1C(=O)NCc1nc(C)no1 (stereo unspecified)
-7.1
